These data points were gathered from ChEMBL document CHEMBL5661974.

- Protocol notes: Half life in BALB/C mouse plasma at 2.5 mg/kg, iv by LC-MS/MS analysis
- Assay type: ADME, organism-based
Readout kind: half-life (min)
Return type: number; implicit unit min.

Report half-life for Oc1cccc(-c2nc(N3CCOCC3)c3oc4ncccc4c3n2)c1 [PI-103] please.
42

----------
- Protocol notes: Volume of distribution at steady state in BALB/C mouse at 2.5 mg/kg, iv by LC-MS/MS analysis
- Format: ADME, organism-based
- Conditions: in vivo, read-out: Vdss
Readout kind: Vd (L)
Write the answer as a number in L, unit excluded.

Name the reported Vd value associated with the compound Oc1cccc(-c2nc(N3CCOCC3)c3oc4ncccc4c3n2)c1
0.052
